The measurements presented in this section are drawn from the supplement of paper PMC10567573.

B1: VPS39 (parent)
chain: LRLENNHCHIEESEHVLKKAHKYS

Variants of: B1
PROCEDURE_SUMMARY: protein stability index of a GFP-peptide fusion (GPS, HEK-293T) (PSI 1-6); higher = more stable;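 note: lentivirally expressed fusions sorted by FACS into six bins by GFP to DsRed ratio, PSI derived from sequencing read proportions per bin multiplied by bin number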
TEST_SETTINGS: c terminus: a fixed tail appended

- VARIANT_LABEL: "L17T"
  protein stability index: 3.14
- VARIANT_LABEL: "K19P"
  protein stability index: 2.41
- VARIANT_LABEL: "L3M"
  protein stability index: 3.13
- VARIANT_LABEL: "E12P"
  protein stability index: 1.93
- VARIANT_LABEL: "C8D"
  protein stability index: 3.58
- VARIANT_LABEL: "H9K"
  protein stability index: 3.59
- VARIANT_LABEL: "C8K"
  protein stability index: 3.3
- VARIANT_LABEL: "K18T"
  protein stability index: 1.87
- VARIANT_LABEL: "K18C"
  protein stability index: 2.02
- VARIANT_LABEL: "L1A"
  protein stability index: 3.91
- VARIANT_LABEL: "H7F"
  protein stability index: 2.03
- VARIANT_LABEL: "H15L"
  protein stability index: 2.1
- VARIANT_LABEL: "L3H"
  protein stability index: 3.6
- VARIANT_LABEL: "R2H"
  protein stability index: 3.55
- VARIANT_LABEL: "K18Q"
  protein stability index: 2.42
- VARIANT_LABEL: "L17K"
  protein stability index: 2.27
- VARIANT_LABEL: "S24T"
  protein stability index: 2.07
- VARIANT_LABEL: "S24P"
  protein stability index: 1.74
- VARIANT_LABEL: "E11Q"
  protein stability index: 2.06
- VARIANT_LABEL: "K18W"
  protein stability index: 1.27
- VARIANT_LABEL: "N5D"
  protein stability index: 1.94
- VARIANT_LABEL: "S24Y"
  protein stability index: 2.28
- VARIANT_LABEL: "C8S"
  protein stability index: 2.88
- VARIANT_LABEL: "S13N"
  protein stability index: 2.12
- VARIANT_LABEL: "I10M"
  protein stability index: 2.34
- VARIANT_LABEL: "K18L"
  protein stability index: 1.88
- VARIANT_LABEL: "E11W"
  protein stability index: 2.75
- VARIANT_LABEL: "S13W"
  protein stability index: 1.01
- VARIANT_LABEL: "E14H"
  protein stability index: 2.33
- VARIANT_LABEL: "A20N"
  protein stability index: 2.38
- VARIANT_LABEL: "I10E"
  protein stability index: 3.08
- VARIANT_LABEL: "V16Y"
  protein stability index: 1.9
- VARIANT_LABEL: "L17M"
  protein stability index: 1.56
- VARIANT_LABEL: "N5G"
  protein stability index: 1.91
- VARIANT_LABEL: "R2T"
  protein stability index: 3.81
- VARIANT_LABEL: "K22T"
  protein stability index: 3.65
- VARIANT_LABEL: "S24R"
  protein stability index: 2.38
- VARIANT_LABEL: "S13P"
  protein stability index: 2.63
- VARIANT_LABEL: "C8M"
  protein stability index: 2.43
- VARIANT_LABEL: "L1D"
  protein stability index: 4.36
- VARIANT_LABEL: "K19W"
  protein stability index: 1.34
- VARIANT_LABEL: "N6Q"
  protein stability index: 2.63
- VARIANT_LABEL: "R2W"
  protein stability index: 2.15
- VARIANT_LABEL: "H15Y"
  protein stability index: 2.41
- VARIANT_LABEL: "L1T"
  protein stability index: 4.32
- VARIANT_LABEL: "S13M"
  protein stability index: 1.64
- VARIANT_LABEL: "H15C"
  protein stability index: 2.18
- VARIANT_LABEL: "Y23H"
  protein stability index: 3.13
- VARIANT_LABEL: "Y23I"
  protein stability index: 3.14
- VARIANT_LABEL: "A20R"
  protein stability index: 2.11
- VARIANT_LABEL: "V16D"
  protein stability index: 3.13
- VARIANT_LABEL: "R2M"
  protein stability index: 2.66
- VARIANT_LABEL: "R2V"
  protein stability index: 2.44
- VARIANT_LABEL: "N6W"
  protein stability index: 1.97
- VARIANT_LABEL: "E14P"
  protein stability index: 2.4
- VARIANT_LABEL: "K22D"
  protein stability index: 3.15
- VARIANT_LABEL: "A20S"
  protein stability index: 2.19
- VARIANT_LABEL: "E14S"
  protein stability index: 2.42
- VARIANT_LABEL: "I10G"
  protein stability index: 2.74
- VARIANT_LABEL: "H9A"
  protein stability index: 2.2
- VARIANT_LABEL: "H9C"
  protein stability index: 2.86
- VARIANT_LABEL: "H15S"
  protein stability index: 2.64
- VARIANT_LABEL: "S24V"
  protein stability index: 1.83
- VARIANT_LABEL: "R2P"
  protein stability index: 4.55
- VARIANT_LABEL: "H15V"
  protein stability index: 1.5
- VARIANT_LABEL: "H15G"
  protein stability index: 1.89
- VARIANT_LABEL: "Y23F"
  protein stability index: 2.28
- VARIANT_LABEL: "E4R"
  protein stability index: 3.45
- VARIANT_LABEL: "V16M"
  protein stability index: 1.97
- VARIANT_LABEL: "R2E"
  protein stability index: 4.59
- VARIANT_LABEL: "K22C"
  protein stability index: 2.02
- VARIANT_LABEL: "H21N"
  protein stability index: 2.68
- VARIANT_LABEL: "S24I"
  protein stability index: 2.04
- VARIANT_LABEL: "E4S"
  protein stability index: 2.71
- VARIANT_LABEL: "K22S"
  protein stability index: 2.51
- VARIANT_LABEL: "V16L"
  protein stability index: 2.47
- VARIANT_LABEL: "R2G"
  protein stability index: 4.24
- VARIANT_LABEL: "C8G"
  protein stability index: 2.27
- VARIANT_LABEL: "K22H"
  protein stability index: 2.58
- VARIANT_LABEL: "K19L"
  protein stability index: 1.52
- VARIANT_LABEL: "E12R"
  protein stability index: 2.14
- VARIANT_LABEL: "E4H"
  protein stability index: 3.32
- VARIANT_LABEL: "N6C"
  protein stability index: 2.44
- VARIANT_LABEL: "N6F"
  protein stability index: 1.75
- VARIANT_LABEL: "N5C"
  protein stability index: 2.22
- VARIANT_LABEL: "H7G"
  protein stability index: 1.97
- VARIANT_LABEL: "N6R"
  protein stability index: 2.49
- VARIANT_LABEL: "K18P"
  protein stability index: 1.85
- VARIANT_LABEL: "L3Q"
  protein stability index: 4.06
- VARIANT_LABEL: "S24M"
  protein stability index: 2.18
- VARIANT_LABEL: "S13T"
  protein stability index: 2.37
